experiment: Drug loading and encapsulation efficiency of drug loaded PNPs comprising pGlu(0.6C10) (HPLC); assay type: physicochemical; settings: PNP with PLA-PEG (A) 5 mg + pGlu(0.6C10) (E) 5 mg, 2.5 mg drug
READOUT: Drug loading (%)
Respond with the bare value in %.

Known results for compounds:
{"COMPOUND": "CN[C@H](CC(C)C)C(=O)N[C@H]1C(=O)N[C@@H](CC(N)=O)C(=O)N[C@H]2C(=O)N[C@H]3C(=O)N[C@H](C(=O)N[C@H](C(=O)O)c4cc(O)cc(O)c4-c4cc3ccc4O)[C@H](O)c3ccc(c(Cl)c3)Oc3cc2cc(c3O[C@@H]2O[C@H](CO)[C@@H](O)[C@H](O)[C@H]2O[C@H]2C[C@](C)(N)[C@H](O)[C@H](C)O2)Oc2ccc(cc2Cl)[C@H]1O", "READOUT": "Drug loading", "READOUT VALUE": 0.1}
{"COMPOUND": "CCCCCCCCCCNC(=O)CNC1(C)CC(OC2C(Oc3c4cc5cc3Oc3ccc(cc3Cl)C(O)C3NC(=O)C(NC(=O)C5NC(=O)C(CC(N)=O)NC(=O)C(NC(=O)C(CC(C)C)NC)C(O)c5ccc(c(Cl)c5)O4)c4ccc(O)c(c4)-c4c(O)cc(O)cc4C(C(=O)O)NC3=O)OC(CO)C(O)C2O)OC(C)C1O (stereo not shown)", "READOUT": "Drug loading", "READOUT VALUE": 20.9}
{"COMPOUND": "CN[C@H](CC(C)C)C(=O)N[C@H]1C(=O)N[C@@H](CC(N)=O)C(=O)N[C@H]2C(=O)N[C@H]3C(=O)N[C@H](C(=O)N[C@H](C(=O)O)c4cc(O)cc(O)c4-c4cc3ccc4O)[C@H](O[C@H]3C[C@](C)(N)[C@@H](O)[C@H](C)O3)c3ccc(c(Cl)c3)Oc3cc2cc(c3O[C@@H]2O[C@H](CO)[C@@H](O)[C@H](O)[C@H]2O[C@H]2C[C@](C)(NCc3ccc(-c4ccc(Cl)cc4)cc3)[C@@H](O)[C@H](C)O2)Oc2ccc(cc2Cl)[C@H]1O", "READOUT": "Drug loading", "READOUT VALUE": 12.3}

Identify measured Drug loading corresponding to CCCCCCCCCCNCCNC1(C)CC(OC2C(Oc3c4cc5cc3Oc3ccc(cc3Cl)C(O)C(NC(=O)C(CC(C)C)NC)C(=O)NC(CC(N)=O)C(=O)NC5C(=O)NC3C(=O)NC(C(=O)CC(C(=O)O)c5cc(O)cc(O)c5-c5cc3ccc5O)C(O)c3ccc(c(Cl)c3)O4)OC(CO)C(O)C2O)OC(C)C1O (stereo not shown)
15.0

====

assay: Drug loading and encapsulation efficiency of drug loaded PNPs comprising pGlu(0.6C10) (HPLC); assay type: physicochemical; conditions: PNP with PLA-PEG (A) as only polymer, 10 mg polymer, 2.5 mg drug
READOUT: Drug loading
Hi, when you answer, please include the unit after the number. Thanks!

{"COMPOUND": "CCCCCCCCCCNCCNC1(C)CC(OC2C(Oc3c4cc5cc3Oc3ccc(cc3Cl)C(O)C(NC(=O)C(CC(C)C)NC)C(=O)NC(CC(N)=O)C(=O)NC5C(=O)NC3C(=O)NC(C(=O)CC(C(=O)O)c5cc(O)cc(O)c5-c5cc3ccc5O)C(O)c3ccc(c(Cl)c3)O4)OC(CO)C(O)C2O)OC(C)C1O (stereo not shown)", "READOUT VALUE": "1.9%"}
{"COMPOUND": "CCCCCCCCCCNC(=O)CNC1(C)CC(OC2C(Oc3c4cc5cc3Oc3ccc(cc3Cl)C(O)C3NC(=O)C(NC(=O)C5NC(=O)C(CC(N)=O)NC(=O)C(NC(=O)C(CC(C)C)NC)C(O)c5ccc(c(Cl)c5)O4)c4ccc(O)c(c4)-c4c(O)cc(O)cc4C(C(=O)O)NC3=O)OC(CO)C(O)C2O)OC(C)C1O (stereo not shown)", "READOUT VALUE": "2.8%"}

Give the value of Drug loading reported for the following: CN[C@H](CC(C)C)C(=O)N[C@H]1C(=O)N[C@@H](CC(N)=O)C(=O)N[C@H]2C(=O)N[C@H]3C(=O)N[C@H](C(=O)N[C@H](C(=O)O)c4cc(O)cc(O)c4-c4cc3ccc4O)[C@H](O)c3ccc(c(Cl)c3)Oc3cc2cc(c3O[C@@H]2O[C@H](CO)[C@@H](O)[C@H](O)[C@H]2O[C@H]2C[C@](C)(N)[C@H](O)[C@H](C)O2)Oc2ccc(cc2Cl)[C@H]1O
0.0%

Could you please provide reported Drug loading for CN[C@H](CC(C)C)C(=O)N[C@H]1C(=O)N[C@@H](CC(N)=O)C(=O)N[C@H]2C(=O)N[C@H]3C(=O)N[C@H](C(=O)N[C@H](C(=O)O)c4cc(O)cc(O)c4-c4cc3ccc4O)[C@H](O[C@H]3C[C@](C)(N)[C@@H](O)[C@H](C)O3)c3ccc(c(Cl)c3)Oc3cc2cc(c3O[C@@H]2O[C@H](CO)[C@@H](O)[C@H](O)[C@H]2O[C@H]2C[C@](C)(NCc3ccc(-c4ccc(Cl)cc4)cc3)[C@@H](O)[C@H](C)O2)Oc2ccc(cc2Cl)[C@H]1O ? Thanks!
2.3%

====

experiment: Drug loading and encapsulation efficiency of drug loaded PNPs comprising pGlu(0.6C10)-PEG (HPLC); assay type: physicochemical; settings: study 2, PLA-PEG (A) 10 mg + pGlu(0.6C10)-PEG (C) 10 mg, 5 mg drug
READOUT: Drug loading (%)
// note: answer is a bare numeric in %

Check out these entries, answers already filled in.
{"COMPOUND": "CN[C@H](CC(C)C)C(=O)N[C@H]1C(=O)N[C@@H](CC(N)=O)C(=O)N[C@H]2C(=O)N[C@H]3C(=O)N[C@H](C(=O)N[C@H](C(=O)O)c4cc(O)cc(O)c4-c4cc3ccc4O)[C@H](O[C@H]3C[C@](C)(N)[C@@H](O)[C@H](C)O3)c3ccc(c(Cl)c3)Oc3cc2cc(c3O[C@@H]2O[C@H](CO)[C@@H](O)[C@H](O)[C@H]2O[C@H]2C[C@](C)(NCc3ccc(-c4ccc(Cl)cc4)cc3)[C@@H](O)[C@H](C)O2)Oc2ccc(cc2Cl)[C@H]1O", "UNIT OF MEASUREMENT": "%", "READOUT VALUE": 13.4}
{"COMPOUND": "CN[C@H](CC(C)C)C(=O)N[C@H]1C(=O)N[C@@H](CC(N)=O)C(=O)N[C@H]2C(=O)N[C@H]3C(=O)N[C@H](C(=O)N[C@H](C(=O)O)c4cc(O)cc(O)c4-c4cc3ccc4O)[C@H](O)c3ccc(c(Cl)c3)Oc3cc2cc(c3O[C@@H]2O[C@H](CO)[C@@H](O)[C@H](O)[C@H]2O[C@H]2C[C@](C)(N)[C@H](O)[C@H](C)O2)Oc2ccc(cc2Cl)[C@H]1O", "UNIT OF MEASUREMENT": "%", "READOUT VALUE": 2.4}
{"COMPOUND": "CCCCCCCCCCNC(=O)CNC1(C)CC(OC2C(Oc3c4cc5cc3Oc3ccc(cc3Cl)C(O)C3NC(=O)C(NC(=O)C5NC(=O)C(CC(N)=O)NC(=O)C(NC(=O)C(CC(C)C)NC)C(O)c5ccc(c(Cl)c5)O4)c4ccc(O)c(c4)-c4c(O)cc(O)cc4C(C(=O)O)NC3=O)OC(CO)C(O)C2O)OC(C)C1O (stereo not shown)", "UNIT OF MEASUREMENT": "%", "READOUT VALUE": 17.5}

Give the value of Drug loading reported for the following: CCCCCCCCCCNCCNC1(C)CC(OC2C(Oc3c4cc5cc3Oc3ccc(cc3Cl)C(O)C(NC(=O)C(CC(C)C)NC)C(=O)NC(CC(N)=O)C(=O)NC5C(=O)NC3C(=O)NC(C(=O)CC(C(=O)O)c5cc(O)cc(O)c5-c5cc3ccc5O)C(O)c3ccc(c(Cl)c3)O4)OC(CO)C(O)C2O)OC(C)C1O (stereo not shown)
6.4

====

Item-by-item account of Encapsulation efficiency (EE)
test: Drug loading and encapsulation efficiency of drug loaded PNPs comprising pGlu(0.6C10) (HPLC); type: physicochemical; conditions: PNP with PLA-PEG (A) as only polymer, 10 mg polymer, 2.5 mg drug
Give a bare numeral; the unit % is implied.

Recorded Encapsulation efficiency (EE), per entry:
{"COMPOUND": "CN[C@H](CC(C)C)C(=O)N[C@H]1C(=O)N[C@@H](CC(N)=O)C(=O)N[C@H]2C(=O)N[C@H]3C(=O)N[C@H](C(=O)N[C@H](C(=O)O)c4cc(O)cc(O)c4-c4cc3ccc4O)[C@H](O[C@H]3C[C@](C)(N)[C@@H](O)[C@H](C)O3)c3ccc(c(Cl)c3)Oc3cc2cc(c3O[C@@H]2O[C@H](CO)[C@@H](O)[C@H](O)[C@H]2O[C@H]2C[C@](C)(NCc3ccc(-c4ccc(Cl)cc4)cc3)[C@@H](O)[C@H](C)O2)Oc2ccc(cc2Cl)[C@H]1O", "READOUT": "Encapsulation efficiency (EE)", "UNIT OF MEASUREMENT": "%", "READOUT VALUE": 9.8}
{"COMPOUND": "CCCCCCCCCCNC(=O)CNC1(C)CC(OC2C(Oc3c4cc5cc3Oc3ccc(cc3Cl)C(O)C3NC(=O)C(NC(=O)C5NC(=O)C(CC(N)=O)NC(=O)C(NC(=O)C(CC(C)C)NC)C(O)c5ccc(c(Cl)c5)O4)c4ccc(O)c(c4)-c4c(O)cc(O)cc4C(C(=O)O)NC3=O)OC(CO)C(O)C2O)OC(C)C1O (stereo not shown)", "READOUT": "Encapsulation efficiency (EE)", "UNIT OF MEASUREMENT": "%", "READOUT VALUE": 10.4}
{"COMPOUND": "CN[C@H](CC(C)C)C(=O)N[C@H]1C(=O)N[C@@H](CC(N)=O)C(=O)N[C@H]2C(=O)N[C@H]3C(=O)N[C@H](C(=O)N[C@H](C(=O)O)c4cc(O)cc(O)c4-c4cc3ccc4O)[C@H](O)c3ccc(c(Cl)c3)Oc3cc2cc(c3O[C@@H]2O[C@H](CO)[C@@H](O)[C@H](O)[C@H]2O[C@H]2C[C@](C)(N)[C@H](O)[C@H](C)O2)Oc2ccc(cc2Cl)[C@H]1O", "READOUT": "Encapsulation efficiency (EE)", "UNIT OF MEASUREMENT": "%", "READOUT VALUE": 0.2}

Then there is this compound:
Tell me measured Encapsulation efficiency (EE) for CCCCCCCCCCNCCNC1(C)CC(OC2C(Oc3c4cc5cc3Oc3ccc(cc3Cl)C(O)C(NC(=O)C(CC(C)C)NC)C(=O)NC(CC(N)=O)C(=O)NC5C(=O)NC3C(=O)NC(C(=O)CC(C(=O)O)c5cc(O)cc(O)c5-c5cc3ccc5O)C(O)c3ccc(c(Cl)c3)O4)OC(CO)C(O)C2O)OC(C)C1O (stereo not shown) please.
7.0
